biological target: human GM-CSF T117 (human, UniProt P04141 18-144); assay: cell-based or functional assay
Sequence (P04141 18-144 I117T limits assumed): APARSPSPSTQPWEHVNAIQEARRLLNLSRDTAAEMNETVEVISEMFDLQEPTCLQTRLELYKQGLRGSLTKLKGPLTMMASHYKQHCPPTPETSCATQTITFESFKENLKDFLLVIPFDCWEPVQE
Property: Fold human T117/I117 (IC50, TF-1 proliferation) (fold)

{"Binder": "MSB0010600 4K21 (4K21 hVH S55R-T62S hVL S27eY-N28I-H34S-N53R-H93Y) (antibody, V domains shown) VH: EVQLVESGGGLVQPGGSLRLSCAASGFAFSAYDMSWVRQAPGKRLELVAYISSGGRSFYYPDSVKGRFTISRDNAKNSLYLQMNSLRAEDTAVYYCTRHLGFDYWGQGTLVTVSS VL: DIVMTQSPLSLPVTPGEPASISCRSSQSLVNYIGNTYLSWYLQKPGQSPQLLIYKVSRRFSGVPDRFSGSGSGTDFTLKISRVEAEDVGVYYCSQSTYVPPTFGQGTKVEIK", "Unit info": "fold", "Numeric readout": 1.4}
{"Binder": "MSB0010602 4K21 (4K21 hVH S55K-T62S hVL S27eY-N28I-H34S-N53R-H93Y) (antibody, V domains shown, IgG) VH: EVQLVESGGGLVQPGGSLRLSCAASGFAFSAYDMSWVRQAPGKRLELVAYISSGGKSFYYPDSVKGRFTISRDNAKNSLYLQMNSLRAEDTAVYYCTRHLGFDYWGQGTLVTVSS VL: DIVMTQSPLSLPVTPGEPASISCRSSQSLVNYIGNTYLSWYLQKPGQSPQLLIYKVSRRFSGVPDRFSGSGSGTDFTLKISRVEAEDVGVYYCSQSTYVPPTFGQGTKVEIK", "Unit info": "fold", "Numeric readout": 1.7}
{"Binder": "MSB0010601 4K21 (4K21 hVH S55K-T62S hVL N28I-H34S-N53R-H93Y) (antibody, V domains shown, IgG; also called optimized 4K21 antibody) VH: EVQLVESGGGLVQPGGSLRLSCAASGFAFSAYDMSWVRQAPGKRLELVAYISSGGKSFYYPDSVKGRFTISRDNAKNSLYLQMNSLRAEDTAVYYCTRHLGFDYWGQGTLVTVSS VL: DIVMTQSPLSLPVTPGEPASISCRSSQSLVNSIGNTYLSWYLQKPGQSPQLLIYKVSRRFSGVPDRFSGSGSGTDFTLKISRVEAEDVGVYYCSQSTYVPPTFGQGTKVEIK", "Unit info": "fold", "Numeric readout": 0.9}
{"Binder": "anti-GM-CSF 4K21 hIgG1K antibody (MSB0010259), recombinant chimeric 4K21 (antibody, V domains shown, Murine variable domains fused to human constant IgG1 heavy chain and kappa light chain domains) VH: EVQLVESGGGLVKSGGSLKLSCAASGFAFSAYDMSWVRQTPEKRLELVAYISSGGSSFYYPDTVKGRFTISRDNAKNTLYLQMSSLKSEDTAMYYCTRHLGFDYWGQGTTLTVSS VL: DVVMTQTPLSLPVSLGDQASISCRSSQSLVNSNGNTYLHWFLQKPGQSPKLLIYKVSNRFSGVPDRFSGSGSGTDFTLKISRVEAEDLGVYFCSQSTHVPPTFGGGTKLEIK", "Unit info": "fold", "Numeric readout": 10.8}
